assay: Displacement of [35S]TBPS from GABAA receptor in rat brain membrane
Format: cell membranes
parameter: pIC50
Numbers only, as −log10 of the molar value.

Example results:
> print(dat)
                                   compound  parameter  observed
1  C[C@]12C[C@H]3C[C@H]4CC[C@@H](O)C[C@@H]4C[C@@H]3C[C@@H]1CCC2=O      pIC50      6.60
2  C[C@]12C[C@H]3CC[C@H](CCO)C[C@@H]3C[C@@H]1CC[C@@]21CO1      pIC50      5.93

For each listed entry, give its pIC50.
1. C[C@]12CC[C@@H]3C[C@H](CCO)CC[C@H]3[C@@H]1CC[C@@]21CO1
2. C[C@]12CC[C@@H](O)C[C@@H]1CC[C@@H]1[C@@H]2CC[C@@]2(C)[C@H]1CC[C@@]21CO1
3. C[C@]12C[C@H]3C[C@H]4CC[C@@H](O)C[C@@H]4C[C@@H]3C[C@@H]1CC[C@@]21CO1
4. C[C@]12C[C@H]3CC[C@@H]4C[C@@H](O)CC[C@H]4[C@@H]3C[C@@H]1CCC2=O

[5.80, 6.96, 7.22, 5.84]
